Reference for the values: patent US8871753B2

molecular target: human JAK1 (a.a. 837-1142) (Homo sapiens); construct: human JAK1 (a.a. 837-1142); His tag (N); made in house; host or cells: insect cells (baculovirus); assay: In vitro JAK kinase assay (HTRF, phosphorylation of a biotinylated peptide), JAK1; assay type: biochemical; details: Table B1; read-out: JAK1 IC50
Sequence (P23458 849-1154): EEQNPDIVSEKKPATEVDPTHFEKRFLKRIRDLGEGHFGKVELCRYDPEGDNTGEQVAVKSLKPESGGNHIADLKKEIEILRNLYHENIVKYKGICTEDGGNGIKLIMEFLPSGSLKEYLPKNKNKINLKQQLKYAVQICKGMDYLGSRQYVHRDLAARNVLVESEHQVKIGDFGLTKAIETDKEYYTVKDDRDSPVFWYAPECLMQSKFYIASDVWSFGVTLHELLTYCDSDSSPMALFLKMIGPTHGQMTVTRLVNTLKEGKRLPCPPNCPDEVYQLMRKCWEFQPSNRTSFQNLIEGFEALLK
Where a name gives a salt, the structure may show the parent alone.
outcome measure: IC50 (nM)

Guide cases for IC50, answers given:
compound	target system	IC50 [nM]
CN(Cc1ccc2cc1CCc1cncc(c1)Nc1ncc(Cl)c(n1)N2)CC1CCN(S(=O)(=O)c2ccccc2C#N)CC1 [Example B340, tris(trifluoroacetate)]	human JAK1 (a.a. 837-1142) (Homo sapiens)	1.2
COc1ccccc1C(=O)Nc1ccc2cc1CCc1cccc(c1)Nc1ncc(Cl)c(n1)N2 [Example B36, trifluoroacetate]	human JAK1 (a.a. 837-1142) (Homo sapiens)	13
CNC(=O)Nc1ccc2cc1CCc1cccc(c1)Nc1ncc(Cl)c(n1)N2 [Example B114, trifluoroacetate]	human JAK1 (a.a. 837-1142) (Homo sapiens)	0.81
Cc1csc(NC(=O)Nc2ccc3cc2CCc2cccc(c2)Nc2ncc(Cl)c(n2)N3)c1 [Example B120, trifluoroacetate]	human JAK1 (a.a. 837-1142) (Homo sapiens)	6.7

[a] O=C(Nc1ccc2cc1CCc1cncc(c1)Nc1ncc(Cl)c(n1)N2)N1CCNCC1 [Example B285]
[b] O=C(Nc1ccc(CCO)cc1)c1cc2cc(c1)Nc1nc(ncc1Cl)Nc1cccc(c1)CC2 [Example B10, trifluoroacetate]
Ask | Quick one: lower IC50, a or b ? Answer by quoting the chosen item's label.
Reply | b
(b: 68 nM, a: 100 nM)

[a] CN1CCCC1CCNC(=O)Nc1ccc2cc1CCc1cccc(c1)Nc1ncc(Cl)c(n1)N2 (stereo not shown) [Example B256, bis(trifluoroacetate)]
[b] O=C(NCCNS(=O)(=O)c1ccc(Cl)nc1)Nc1ccc2cc1CCc1cccc(c1)Nc1ncc(Cl)c(n1)N2 [Example B331, trifluoroacetate]
Ask | Returns the identifier with the smallest measured IC50 among a and b . Answer format: the label of the selected item.
Reply | b

[1] O=C(Nc1ccc2cc1CCc1cccc(c1)Nc1ncc(Cl)c(n1)N2)N[C@H]1CCN(Cc2ccccc2)C1 [Example B173, bis(trifluoroacetate)]
[2] CC(C)(C)OC(=O)N1CCCC(NC(=O)Nc2ccc3cc2CCc2cccc(c2)Nc2ncc(Cl)c(n2)N3)C1 (stereo not shown) [Example B237]
Ask | Of 1 and 2 , which one carries the higher reported IC50? // respond with label for picked entry
Reply | 2
(2: 7.9 nM, 1: 3.5 nM)

[a] O=C(Nc1ccc(Cl)cc1)Nc1ccc2cc1CCc1cccc(c1)Nc1ncc(Cl)c(n1)N2 [Example B86, trifluoroacetate]
[b] O=C(Nc1cccc(C(F)(F)F)c1)Nc1ccc2cc1CCc1cccc(c1)Nc1ncc(Cl)c(n1)N2 [Example B112, trifluoroacetate]
Ask | Compare a and b by numeric IC50 and name the larger one. Label of pick, please.
Reply | b

* * *

target: Recombinant Human Anaplastic Lymphoma Kinase (Homo sapiens); construct: purchased Invitrogen, Carlsbad, Calif; test: ALK HTRF kinase assay; type: biochemical; conditions: Table D1; 90 μM ATP
Sequence (Q9UM73 19-1620): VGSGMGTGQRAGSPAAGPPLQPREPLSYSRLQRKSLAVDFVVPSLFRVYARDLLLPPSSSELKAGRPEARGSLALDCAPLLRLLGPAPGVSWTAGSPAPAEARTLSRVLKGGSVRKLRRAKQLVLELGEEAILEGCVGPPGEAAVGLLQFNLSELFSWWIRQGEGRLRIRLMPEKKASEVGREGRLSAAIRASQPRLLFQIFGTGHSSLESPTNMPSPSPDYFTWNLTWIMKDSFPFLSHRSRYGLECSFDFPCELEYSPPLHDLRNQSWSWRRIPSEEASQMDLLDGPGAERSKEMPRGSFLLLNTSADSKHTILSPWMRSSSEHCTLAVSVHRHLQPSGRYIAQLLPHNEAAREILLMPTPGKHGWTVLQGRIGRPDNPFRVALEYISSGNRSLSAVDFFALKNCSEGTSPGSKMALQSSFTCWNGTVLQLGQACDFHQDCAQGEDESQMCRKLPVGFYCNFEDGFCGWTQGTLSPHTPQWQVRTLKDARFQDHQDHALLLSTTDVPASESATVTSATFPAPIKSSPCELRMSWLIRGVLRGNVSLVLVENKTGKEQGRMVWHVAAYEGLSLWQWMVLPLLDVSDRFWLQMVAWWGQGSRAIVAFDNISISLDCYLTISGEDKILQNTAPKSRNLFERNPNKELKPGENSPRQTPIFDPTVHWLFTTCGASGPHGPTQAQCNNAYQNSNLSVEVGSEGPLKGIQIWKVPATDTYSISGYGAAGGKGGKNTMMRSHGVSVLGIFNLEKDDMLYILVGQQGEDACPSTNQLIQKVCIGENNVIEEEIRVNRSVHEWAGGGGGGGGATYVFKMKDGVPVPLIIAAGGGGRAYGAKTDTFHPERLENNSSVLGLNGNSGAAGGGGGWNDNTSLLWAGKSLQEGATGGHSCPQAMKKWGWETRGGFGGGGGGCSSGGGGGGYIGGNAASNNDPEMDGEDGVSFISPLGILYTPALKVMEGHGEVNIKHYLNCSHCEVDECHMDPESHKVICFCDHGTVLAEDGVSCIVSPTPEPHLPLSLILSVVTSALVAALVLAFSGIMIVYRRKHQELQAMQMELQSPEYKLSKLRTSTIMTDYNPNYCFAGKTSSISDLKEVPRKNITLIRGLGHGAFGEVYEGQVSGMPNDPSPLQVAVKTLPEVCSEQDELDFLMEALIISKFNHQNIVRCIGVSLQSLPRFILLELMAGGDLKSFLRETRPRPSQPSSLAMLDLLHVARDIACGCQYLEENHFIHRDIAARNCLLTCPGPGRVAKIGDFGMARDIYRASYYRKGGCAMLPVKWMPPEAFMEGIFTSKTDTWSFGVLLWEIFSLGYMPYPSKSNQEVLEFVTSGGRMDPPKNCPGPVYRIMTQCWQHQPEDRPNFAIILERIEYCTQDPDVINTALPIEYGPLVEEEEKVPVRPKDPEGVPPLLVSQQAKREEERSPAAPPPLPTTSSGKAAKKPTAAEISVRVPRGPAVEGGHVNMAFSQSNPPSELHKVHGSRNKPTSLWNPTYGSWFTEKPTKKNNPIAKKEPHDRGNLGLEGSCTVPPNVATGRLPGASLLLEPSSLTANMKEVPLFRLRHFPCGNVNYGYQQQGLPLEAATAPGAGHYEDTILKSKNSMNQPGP
pIC50: −log10 of the molar value. Where a name gives a salt, the structure may show the parent alone.
outcome measure: pIC50

molecule	pIC50
Cc1n[nH]c(C)c1-c1cc2cc(c1)Nc1ncc(Cl)c(n1)Nc1cccc(c1)OCC2 [Example D30, bis(trifluoroacetate)]	6.80
Clc1cnc2nc1Nc1cccc(c1)CCNc1cccc(c1)N2 [Example D78, bis(trifluoroacetate)]	6.10
O=C(NCc1ccccc1)N1CCN(c2cc(-c3cc4cc(c3)Nc3ncc(Cl)c(n3)Nc3cccc(c3)OCC4)ccn2)CC1 [Example D45, bis(trifluoroacetate)]	6.47
Clc1cnc2nc1Nc1cccc(c1)CCCNc1cccc(c1)N2 [Example D77, bis(trifluoroacetate)]	6.40
CS(=O)(=O)N1CCN(c2cc(-c3cc4cc(c3)Nc3ncc(Cl)c(n3)Nc3cccc(c3)OCC4)ccn2)CC1 [Example D36, bis(trifluoroacetate)]	6.65

[1] CS(=O)(=O)c1ccc(-c2cc3cc(c2)Nc2ncc(Cl)c(n2)Nc2cccc(c2)OCC3)cc1 [Example D29, trifluoroacetate]
[2] O=C(Nc1cc2cc(c1)OCCSc1cccc(c1)Nc1nc(ncc1Cl)N2)c1ccncc1 [Example D60, bis(trifluoroacetate)]
Ask | When the recorded pIC50 values are compared, which is smaller: that of 1 or that of 2 ? Your answer should be the label of the entry you select.
Reply | 1

[A] O=C(Nc1ccccc1)N1CCN(c2ccc(-c3cc4cc(c3)Nc3ncc(Cl)c(n3)Nc3cccc(c3)OCC4)cn2)CC1 [Example D42, bis(trifluoroacetate)]
[B] Clc1cnc2nc1Nc1cccc(c1)OCCc1cc(cc(-c3ccc(N4CCNCC4)nc3)c1)N2 [Example D33, tris(trifluoroacetate)]
Ask | Please indicate which has the smaller reported pIC50: A , or B . Pick one; state its label.
Reply | A
(A: 6.14, B: 6.97)

[1] Clc1cnc2nc1Nc1cccc(c1)OCCOc1cccc(c1)N2 [Example D10, trifluoroacetate]
[2] Clc1cnc2nc1Nc1cccc(c1)OCCc1cc(cc(-c3ccncc3)c1)N2 [Example D25, bis(trifluoroacetate)]
[3] Clc1cnc2nc1Nc1cccc(c1)OCCNc1cccc(c1)N2 [Example D70, bis(trifluoroacetate)]
Ask | Arrange the 3 molecules from largest to smallest pIC50. Use the labels to give the ranking in the order requested.
Reply | 2, 3, 1
(2: 6.96, 3: 6.43, 1: 6.10)
